Kindly state abundance fitness for each of the entries shown.
B1: Tyrosine-protein kinase Lck, residues 63 to 120; numbered along this chain, P06239 (parent)
chain: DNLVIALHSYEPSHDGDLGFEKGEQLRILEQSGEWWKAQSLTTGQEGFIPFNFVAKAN

Variants of: B1
Experiment: abundance fitness (aPCA) (normalised: wild type 0, dead -1); higher = more abundant; growth selection in yeast, the domain comes from the species named
Conditions: Homo sapiens
Give the value as a plain number.

Q: Query (variant): F51I ; field requested: abundance fitness
Ans: 0.047

Q: I would be grateful if you could share the reported abundance fitness for E30I .
Ans: -0.586

Q: So what's the measured abundance fitness for this one? E11A
Ans: -0.137

Q: I am curious: what abundance fitness value has been reported for D15R ?
Ans: -0.053

Q: Recorded abundance fitness of K56L , please.
Ans: -0.217

Q: Recorded abundance fitness for N52E , please?
Ans: 0.029

Q: Returns the measured abundance fitness for the input variant. Input: D15M
Ans: -0.225

Q: Given the entry G23C , report its measured abundance fitness.
Ans: -0.829

Q: For the variant shown here, R27T , give the reported abundance fitness.
Ans: -0.24

Q: // returns reported abundance fitness for input Y10S
Ans: -0.662

Q: Returns the measured abundance fitness for the input variant. Input: Q39I
Ans: -0.327
